test: Selectivity ratio of GI50 for cytotoxicity against human HL-60 cells to GI50 for antitrypanosomal activity against bloodstream form of Trypanosoma brucei clone 427-221a; type: toxicity, cell-based; settings: read-out: RatioGI50
Can you tell me selectivity ratio for the items I'm about to list?
API note: the answer field is a bare number with no unit suffix.

Fill in the blank: the reported selectivity ratio of `CCCCNC(=O)OC[C@]1(O)O[C@H]([C@H]2C[C@H](C)[C@H]([C@]3(CO)CC[C@H]([C@]4(C)CC[C@]5(C[C@H](O)[C@@H](C)[C@@H]([C@@H](C)[C@@H](OC)[C@H](C)C(=O)O)O5)O4)O3)O2)[C@@H](C)C[C@H]1C` is ____. 24.3

So what does the record say about selectivity ratio for `CCNC(=O)OC[C@]1(O)O[C@H]([C@H]2C[C@H](C)[C@H]([C@]3(CO)CC[C@H]([C@]4(C)CC[C@]5(C[C@H](O)[C@@H](C)[C@@H]([C@@H](C)[C@@H](OC)[C@H](C)C(=O)O)O5)O4)O3)O2)[C@@H](C)C[C@H]1C` ? 28.1

Which value of selectivity ratio has been reported for `CCCCCCCCCC(=O)OC[C@]1(O)O[C@H]([C@H]2C[C@H](C)[C@H]([C@]3(CO)CC[C@H]([C@]4(C)CC[C@]5(C[C@H](O)[C@@H](C)[C@@H]([C@@H](C)[C@@H](OC)[C@H](C)C(=O)O)O5)O4)O3)O2)[C@@H](C)C[C@H]1C` in the records? 263

What does the data say about its selectivity ratio? Entry: `CCCNC(=O)OC[C@]1(O)O[C@H]([C@H]2C[C@H](C)[C@H]([C@]3(CO)CC[C@H]([C@]4(C)CC[C@]5(C[C@H](O)[C@@H](C)[C@@H]([C@@H](C)[C@@H](OC)[C@H](C)C(=O)O)O5)O4)O3)O2)[C@@H](C)C[C@H]1C` 8.3

Quick check: selectivity ratio of `CO[C@H]([C@H](C)[C@H]1O[C@@]2(CC[C@@](C)([C@H]3CC[C@@](CO)([C@@H]4O[C@@H]([C@H]5O[C@@](O)(COC(=O)Nc6ccccc6)[C@H](C)C[C@@H]5C)C[C@@H]4C)O3)O2)C[C@H](O)[C@H]1C)[C@H](C)C(=O)O` ? 33.1

# query: selectivity ratio of entry `CO[C@H]([C@H](C)[C@H]1O[C@@]2(CC[C@@](C)([C@H]3CC[C@@](CO)([C@@H]4O[C@@H]([C@H]5O[C@@](O)(COC(=O)NCCCl)[C@H](C)C[C@@H]5C)C[C@@H]4C)O3)O2)C[C@H](O)[C@H]1C)[C@H](C)C(=O)O` 6.4

GET /values?readout=selectivity ratio&item= `CO[C@H]([C@H](C)[C@H]1O[C@@]2(CC[C@@](C)([C@H]3CC[C@@](CO)([C@@H]4O[C@@H]([C@H]5O[C@@](O)(COC(=O)c6ccccc6)[C@H](C)C[C@@H]5C)C[C@@H]4C)O3)O2)C[C@H](O)[C@H]1C)[C@H](C)C(=O)O` 7

Requested read-out: selectivity ratio. Entry: `CO[C@H]([C@H](C)[C@H]1O[C@@]2(CC[C@@](C)([C@H]3CC[C@@](CO)([C@@H]4O[C@@H]([C@H]5O[C@@](O)(COC(=O)NCc6ccccc6)[C@H](C)C[C@@H]5C)C[C@@H]4C)O3)O2)C[C@H](O)[C@H]1C)[C@H](C)C(=O)O` 62.9

Item under review: `CO[C@H]([C@H](C)[C@H]1O[C@@]2(CC[C@@](C)([C@H]3CC[C@@](CO)([C@@H]4O[C@@H]([C@H]5O[C@@](O)(COC(=O)NCCCCl)[C@H](C)C[C@@H]5C)C[C@@H]4C)O3)O2)C[C@H](O)[C@H]1C)[C@H](C)C(=O)O` . Reported selectivity ratio? 5.9

Recorded selectivity ratio for `CO[C@H]([C@H](C)[C@H]1O[C@@]2(CC[C@@](C)([C@H]3CC[C@@](CO)([C@@H]4O[C@@H]([C@H]5O[C@@](O)(COC(=O)NC(=O)CCl)[C@H](C)C[C@@H]5C)C[C@@H]4C)O3)O2)C[C@H](O)[C@H]1C)[C@H](C)C(=O)O` , please? 746

# get_value(readout='selectivity ratio', item= `CO[C@H]([C@H](C)[C@H]1O[C@@]2(CC[C@@](C)([C@H]3CC[C@@](CO)([C@@H]4O[C@@H]([C@H]5O[C@@](O)(COC(C)=O)[C@H](C)C[C@@H]5C)C[C@@H]4C)O3)O2)C[C@H](O)[C@H]1C)[C@H](C)C(=O)O` ) 19
